EXPERIMENTAL_PROTOCOL: Tmax of aliskiren hemifumarate following 2 week oral dosing of aliskiren hemifumarate at 10 mg.Kg-1 level studied on […] in male Callithrix jacchus
Assay type: ADME, organism-based
SETUP_CONDITIONS: marmoset, plasma
ASSAY_METRIC: Tmax (h)
The figure you give is taken to be in h; do not add the unit.

(Q) For the molecule shown here, COCCCOc1cc(C[C@@H](C[C@H](N)[C@@H](O)C[C@H](C(=O)NCC(C)(C)C(N)=O)C(C)C)C(C)C)ccc1OC.COCCCOc1cc(C[C@@H](C[C@H](N)[C@@H](O)C[C@H](C(=O)NCC(C)(C)C(N)=O)C(C)C)C(C)C)ccc1OC.O=C(O)/C=C/C(=O)O [ALISKIREN FUMARATE] , give the reported Tmax.
(A) 2

* * *

EXPERIMENTAL_PROTOCOL: Cmax of aliskiren hemifumarate following 4 week oral dietary dosing of aliskiren hemifumarate at 1000 mg.Kg-1 level in male mouse
Assay type: ADME, organism-based
SETUP_CONDITIONS: CB6F1-TGrasH2, mouse, in vivo
ASSAY_METRIC: Cmax (ng/mL)
The figure you give is taken to be in ng/mL; do not add the unit.

(Q) For the compound shown here, COCCCOc1cc(C[C@@H](C[C@H](N)[C@@H](O)C[C@H](C(=O)NCC(C)(C)C(N)=O)C(C)C)C(C)C)ccc1OC.COCCCOc1cc(C[C@@H](C[C@H](N)[C@@H](O)C[C@H](C(=O)NCC(C)(C)C(N)=O)C(C)C)C(C)C)ccc1OC.O=C(O)/C=C/C(=O)O [ALISKIREN FUMARATE] , give the reported Cmax.
(A) 879

* * *

EXPERIMENTAL_PROTOCOL: AUC (0-24h) of aliskiren hemifumarate following 4 week oral dietary dosing of aliskiren hemifumarate at 500 mg.Kg-1 level in female mouse
Assay type: ADME, organism-based
SETUP_CONDITIONS: CB6F1-TGrasH2, mouse, plasma
ASSAY_METRIC: AUC(0-t) at 24 h (ng·h/mL)
The figure you give is taken to be in ng·h/mL; do not add the unit.

(Q) For the compound shown here, COCCCOc1cc(C[C@@H](C[C@H](N)[C@@H](O)C[C@H](C(=O)NCC(C)(C)C(N)=O)C(C)C)C(C)C)ccc1OC.COCCCOc1cc(C[C@@H](C[C@H](N)[C@@H](O)C[C@H](C(=O)NCC(C)(C)C(N)=O)C(C)C)C(C)C)ccc1OC.O=C(O)/C=C/C(=O)O [ALISKIREN FUMARATE] , give the reported AUC(0-t) at 24 h.
(A) 857

* * *

EXPERIMENTAL_PROTOCOL: Cmax of aliskiren hemifumarate following 4 week oral dietary dosing of aliskiren hemifumarate at 1000 mg.Kg-1 level in female mouse
Type: ADME, organism-based
SETUP_CONDITIONS: CB6F1-TGrasH2, mouse, in vivo
ASSAY_METRIC: Cmax
Answer format reminder: number followed by unit.

(Q) For the compound shown here, COCCCOc1cc(C[C@@H](C[C@H](N)[C@@H](O)C[C@H](C(=O)NCC(C)(C)C(N)=O)C(C)C)C(C)C)ccc1OC.COCCCOc1cc(C[C@@H](C[C@H](N)[C@@H](O)C[C@H](C(=O)NCC(C)(C)C(N)=O)C(C)C)C(C)C)ccc1OC.O=C(O)/C=C/C(=O)O [ALISKIREN FUMARATE] , give the reported Cmax.
(A) 167 ng/mL

* * *

EXPERIMENTAL_PROTOCOL: Oral clearance of SPP100 following single oral dose of SPP100 75 mg capsule studied in healthy human
Type: ADME, organism-based
SETUP_CONDITIONS: plasma
ASSAY_METRIC: CL/F (mL/min)
The figure you give is taken to be in mL/min; do not add the unit.

(Q) For the compound shown here, "COCCCOc1cc(C[C@@H](C[C@H](N)[C@@H](O)C[C@H](C(=O)NCC(C)(C)C(N)=O)C(C)C)C(C)C)ccc1OC" , give the reported CL/F.
(A) 4900
